System: HL60/MX2
Assay Protocol: Induction of cytosolic calcium increase in human HL60/MX2 cells at 1 to 5 uM by Fluo-4-AM dye based fluorescence assay
Type: functional, cell-based
Activity calls are given as the source filed them. No cut-off for these calls is given here.
Please reply with one of these outcomes: active, inactive

Compound: C#CCOC(=O)CC1C(C(=O)OCC#C)=C(N)Oc2ccc(-c3ccncc3)cc21 (centres undefined)
Class: inactive
//
Compound: C#CCOC(=O)CC1C(C(=O)OCC#C)=C(N)Oc2ccc(-c3cncc(C)c3)cc21 (centres undefined)
Class: active
//
Compound: C#CCOC(=O)CC1C(C(=O)OCC#C)=C(N)Oc2ccc(-c3ccc(C)nc3)cc21 (centres undefined)
Class: inactive

### Prompt Tell me the recorded outcome of this test for C#CCOC(=O)CC1C(C(=O)OCC#C)=C(N)Oc2ccc(-c3ccnc(C)c3)cc21 (centres undefined) .
### Response active

Value source: ChEMBL document CHEMBL4130641
